Ref: patent US8188075B2

- Test system: human umbilical vein endothelial cell (HUVEC)
- protocol.description: in vitro HUVEC migration assay (time-lapse imaging of scraped confluent cultures)
- Type: cell-based
- particulars: Homo sapiens, HUVEC; estimated from similar covered areas at 100 nM and 1 μM (FIG. 2); read-out: IC50 of the inhibition of HUVEC migration
pIC50: −log10 of the molar value.
endpoint: pIC50

## Task // fetch pIC50 given entry `CC(C)c1cc(-c2nnc(O)n2-c2ccc3c(ccn3C)c2)c(O)cc1O`
## Result > 7.00
